These data points were gathered from patent US20240067657A1.

test system: HCMV Strain AD169 in MRC-5 cells; assay: Viral qPCR assay HCMV (V0/V1, V2/V3), EC50; type: cell-based; settings: Human betaherpesvirus 5, AD169, MRC5, viral qPCR assay of Example 191; read-out: HCMV Cell (EC50)
pEC50: −log10 of the molar value.
reported.property: pEC50

>>> df
                                   compound  reported_property  observed
0  O=C(NCc1ccc(Cl)cc1)c1cc(O[C@H]2CCN3C(=O)OC[C@@H]3C2)c(CC2CCCO2)cn1 (mixture of isomers)              pEC50      6.45
1  CC(=O)N1CCC(Oc2cc(C(=O)NCc3ccc(Cl)cc3)ncc2-c2cnn(C(F)F)c2)CC1              pEC50      5.91
2  O=C(NCc1ccc(Cl)cc1)c1cc(O[C@H]2CCN3C(=O)OC[C@@H]3C2)c(C2CC2O)cn1 (stereo partly shown)              pEC50      6.59
3  Cn1cc(-c2cnc(C(=O)NCc3ccc(Cl)c(F)c3)cc2O[C@H]2CCN3C(=O)OC[C@@H]3C2)cn1              pEC50      7.06
